System Tested: T1, full-length human GIPR with an N-terminal FLAG tag (human, UniProt P48546 22-466)
T1 sequence (looked up): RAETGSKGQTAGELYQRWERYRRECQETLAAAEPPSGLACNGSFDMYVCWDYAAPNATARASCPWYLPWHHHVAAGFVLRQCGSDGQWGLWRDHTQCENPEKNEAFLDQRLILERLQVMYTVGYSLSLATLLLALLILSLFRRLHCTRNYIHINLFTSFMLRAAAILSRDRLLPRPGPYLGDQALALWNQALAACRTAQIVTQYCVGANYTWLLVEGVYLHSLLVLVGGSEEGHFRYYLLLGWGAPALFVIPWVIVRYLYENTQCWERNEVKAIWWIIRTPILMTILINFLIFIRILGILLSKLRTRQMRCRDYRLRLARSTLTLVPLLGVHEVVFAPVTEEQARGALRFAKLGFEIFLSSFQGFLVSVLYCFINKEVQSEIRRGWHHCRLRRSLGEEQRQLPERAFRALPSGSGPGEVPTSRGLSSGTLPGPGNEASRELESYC
Experimental Details: cell-based or functional assay
Starred links: 1 amine or outer side, 2 acyl side, 3 side chain; linkers in the order of their positions; H or OH if unused. Non-standard residues stand in square brackets, D forms with d. Groups on a side chain read outwards from the residue. No end group written: not given here. *: point of attachment. C18 diacid = O=C(O)CCCCCCCCCCCCCCCCC(=O)*; γGlu = O=C(O)[C@H](CCC(=O)[*:2])N[*:1]; NMeY = CN[C@@H](Cc1ccc(O)cc1)C(=O)O; AEEA = NCCOCCOCC(=O)O; E1 = not defined here; K1 = not defined here; Aib = CC(C)(N)C(=O)O
Reported Human GIPR cAMP EC50, HEK293T by item:
Could you give me the number in pM? Just the number is fine.

These solved cases illustrate the format of a correct answer.
- Binder: "[NMeY][Aib]EGTFISDYSIAK([AEEA-AEEA-γGlu-C18 diacid])DRIHQQNFVNWLLAQRPSSGAPPPS-NH2 [Compound No. 3]"
  Human GIPR cAMP EC50, HEK293T, pM: 0.6
- Binder: "[NMeY][Aib]EGTFISDYSIA[K1]DRA[E1]Q[Aib]K([AEEA-AEEA-γGlu-γGlu-C18 diacid])FVNWLLAQRG-OH (reading uncertain; also: 'K1' at 14 and 'E1' at 18, not explained) [Compound No. 123]"
  Human GIPR cAMP EC50, HEK293T, pM: 0.5
- Binder: "[NMeY][Aib]EGTFISDYSI[Aib]LDR[Aib]AQ[Aib]NFVNWLLAQK([AEEA-AEEA-γGlu-γGlu-C18 diacid])PSSGAPPPS-NH2 [Compound No. 27]"
  Human GIPR cAMP EC50, HEK293T, pM: 0.4

--- query ---
Prompt line: Consider the binder [NMeY][Aib]EGTFISDYSIALDRK(2OEGgE‑C18 diacid)HQQNFVNWLLAQRPSSGAPPPS-NH2 [Compound No. 4] and give its measured Human GIPR cAMP EC50, HEK293T.
Response line: 1
